- MEASUREMENT_TARGET: human GIP receptor (bioGIPR) (Homo sapiens, UniProt P48546)
- Construct: Biotinylate extracellular of the human GIP receptor (bioGIPR, Proteros biostructures GmbH, lot #02/2b); purchased Proteros biostructures GmbH lot #02/2b
- Sequence (P48546 22-138 limits assumed): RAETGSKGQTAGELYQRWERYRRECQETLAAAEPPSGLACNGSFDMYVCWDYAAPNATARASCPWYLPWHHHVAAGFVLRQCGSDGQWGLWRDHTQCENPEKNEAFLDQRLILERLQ
- ASSAY_DETAILS: Surface plasmon resonance (SPR) based binding assay
- CONDITION_SET: SPR, Single Cycle Kinetic mode, 25° C., 1:1 Langmuir binding model; read-out: pKD Category (converted)
*1 amine or outer side, *2 acyl side, *3 side chain or, on linkers, in order; H or OH if unused. Where a SMILES comes first, the peptide text is derived from it. Bridges are numbered along the chain shown (N, C = ends). [ ]: non-standard residue; d: D form. The star is where a group is joined. X3 = O=C(O)CN1CCN(CC(=O)O)CCN(CC(=O)NCCCOCCOCCOCCCN*)CCN(CC(=O)O)CC1; Trp(5-Br) = N[C@@H](Cc1c[nH]c2ccc(Br)cc12)C(=O)O; Trp(5-Cl) = N[C@@H](Cc1c[nH]c2ccc(Cl)cc12)C(=O)O; Pyridine(2,6-diCH2) = c1cc(C[*:1])nc(C[*:2])c1; X4 = O=C(NCCN[*:2])c1cccc(C[*:1])c1; Hyp = O=C(O)[C@@H]1C[C@@H](O)CN1; Suc = O=C(CCC(=O)[*:2])[*:1]; hSer = N[C@@H](CCO)C(=O)O; Thp = NC1(C(=O)O)CCOCC1; Aib = CC(C)(N)C(=O)O
EXPERIMENTAL_ENDPOINT: Kd

[[record]]
molecule = "CC[C@H](C)[C@@H]1NC(=O)[C@H](CC(C)C)NC(=O)C2(CCOCC2)NC(=O)[C@@H](NC(=O)[C@@H](CC(C)C)NC(=O)[C@H](CCC(=O)O)NC(=O)[C@@H]2C[C@@H](O)CN2C(=O)[C@H](Cc2c[nH]c3ccc(Br)cc23)NC(=O)[C@H](Cc2c[nH]c3ccccc23)NC(=O)[C@H](CCO)NC(C)=O)CSCc2cccc(n2)CSC[C@@H](C(N)=O)NC1=O [GIP-197] (Ac-[hSer]W[Trp(5-Br)][Hyp]E[dL]C[Thp]LIC-NH2; linker 7-11 via Pyridine(2,6-diCH2))"
result = "< 1 nM"

[[record]]
molecule = "CC[C@H](C)[C@@H]1NC(=O)[C@H](CC(C)C)NC(=O)C(C)(C)NC(=O)[C@@H](NC(=O)[C@@H](CC(C)C)NC(=O)[C@H](CCC(=O)O)NC(=O)[C@@H]2CCCN2C(=O)[C@H](Cc2c[nH]c3ccc(Cl)cc23)NC(=O)[C@H](Cc2c[nH]c3ccccc23)NC(=O)[C@H](CC(=O)O)NC(=O)CCC(=O)NCCCOCCOCCOCCCNC(=O)CN2CCN(CC(=O)O)CCN(CC(=O)O)CCN(CC(=O)O)CC2)CSCc2cccc(c2)C(=O)NCCNC1=O [GIP-359] ({X3-Suc}-DW[Trp(5-Cl)]PE[dL]C[Aib]LI; linker 7-C via X4)"
result = "1 to 7.94 nM"

